molecular target: cynomolgus IgE (recombinant chimaeric D12 variable region and cynomolgus IgE constant region) (cynomolgus monkey (constant region); …); experiment: cell-based or functional assay
Sequence (heavy, as listed by the source limits assumed, chain 1 of 2): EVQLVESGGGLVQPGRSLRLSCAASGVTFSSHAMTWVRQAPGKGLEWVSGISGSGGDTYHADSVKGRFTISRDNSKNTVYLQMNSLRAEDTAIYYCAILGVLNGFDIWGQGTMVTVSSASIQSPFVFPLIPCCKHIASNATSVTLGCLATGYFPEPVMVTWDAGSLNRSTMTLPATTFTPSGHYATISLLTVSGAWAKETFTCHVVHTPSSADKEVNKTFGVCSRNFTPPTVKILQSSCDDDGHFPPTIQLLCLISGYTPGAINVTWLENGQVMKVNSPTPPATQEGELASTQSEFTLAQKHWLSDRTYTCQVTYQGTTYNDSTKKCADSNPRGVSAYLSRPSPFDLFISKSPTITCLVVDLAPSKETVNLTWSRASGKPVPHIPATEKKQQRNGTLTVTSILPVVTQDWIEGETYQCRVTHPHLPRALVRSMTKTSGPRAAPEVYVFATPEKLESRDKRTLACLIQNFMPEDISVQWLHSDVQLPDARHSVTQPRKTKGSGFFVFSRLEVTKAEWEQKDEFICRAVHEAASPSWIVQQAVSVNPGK
Sequence (light, as listed by the source limits assumed, chain 2 of 2): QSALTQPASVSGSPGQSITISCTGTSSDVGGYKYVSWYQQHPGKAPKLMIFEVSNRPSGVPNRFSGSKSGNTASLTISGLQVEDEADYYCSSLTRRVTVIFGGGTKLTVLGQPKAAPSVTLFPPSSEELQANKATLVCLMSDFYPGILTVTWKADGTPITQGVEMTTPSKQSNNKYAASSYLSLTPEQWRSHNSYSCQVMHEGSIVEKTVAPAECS
REPORTED METRIC: RBL-ER51 calcium signalling IC50 (nM), Cynomolgus IgE, geomean

| BINDER | UNIT OF MEASURE | OBS VALUE |
| --- | --- | --- |
| Antibody 5 IgG (antibody, V domains shown, Whole human IgG (section 1.4, IgG1)) VH: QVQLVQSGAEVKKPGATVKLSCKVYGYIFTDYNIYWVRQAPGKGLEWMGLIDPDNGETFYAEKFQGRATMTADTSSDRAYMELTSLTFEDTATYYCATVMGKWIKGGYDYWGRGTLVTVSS VL: QSVLTQPPSVSGAPGQRVTISCTGSSSNIGAGYDVHWYQQLPGTAPKLLIYDNFNRPSGVPDRFSGSKSGTSASLAIIGLQTEDEADYYCQSYDSTKHTSPFGTGTKLTVL | nM | 0.181 |
| Antibody 18 IgG (antibody, V domains shown) VH: QVQLVQSGAEVKKPGATVKLSCKVYGYIFTDYNIYWVRQAPGKGLEWMGLIDPDNGETFYAEKFQGRATMTADTSSDRAYMELTSLTFEDTATYYCATVLLRSAKGGYDYWGRGTLVTVSS VL: QSVLTQPPSVSGAPGQRVTISCTGSSSNIGAGYDVHWYQQLPGTAPKLLIYDNFNRPSGVPDRFSGSKSGTSASLAIIGLQTEDEADYYCQSYDSHLQLSPFGTGTKLTVL | nM | 2.97 |
| Antibody 28 IgG (antibody, V domains shown, Whole human IgG (section 1.4, IgG1)) VH: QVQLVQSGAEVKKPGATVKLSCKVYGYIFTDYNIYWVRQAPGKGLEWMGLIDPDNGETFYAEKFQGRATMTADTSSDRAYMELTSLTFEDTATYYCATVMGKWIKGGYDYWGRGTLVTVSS VL: QSVLTQPPSVSGAPGQRVTISCTGSSSNIGAGYDVHWYQQLPGTAPKLLIYDNFNRPSGVPDRFSGSKSGTSASLAIIGLQTEDEADYYCQSYDSSSLHSPFGTGTKLTVL | nM | 0.253 |
